- experiment notes: Therapeutic index, ratio of hemolytic activity in human RBC to MIC for Cryptococcus neoformans
- cond: human red blood cells (RBC), read-out: TI
Square brackets hold non-standard residues; d marks the D form. Peptide text beside a SMILES is read from it. Orn = NCCC[C@H](N)C(=O)O
Listed below: selectivity ratio values for each entry.

{"compound": "CC(C)C[C@@H]1NC(=O)[C@H](CCCN)NC(=O)[C@H](C(C)C)NC(=O)[C@@H]2CCCN2C(=O)[C@@H](Cc2ccccc2)NC(=O)[C@H](CC(C)C)NC(=O)[C@H](CCCN)NC(=O)[C@H](C(C)C)NC(=O)[C@@H]2CCCN2C(=O)[C@@H](Cc2ccccc2)NC1=O [GRAMICIDIN S] (cyclo(L[dF]PV[Orn]L[dF]PV[Orn]))", "selectivity ratio": 100}
{"compound": "CC(C)C[C@@H]1NC(=O)[C@H](CCCCN)NC(=O)[C@H](C(C)C)NC(=O)[C@@H]2CCCN2C(=O)[C@@H](Cc2ccc(O)cc2)NC(=O)[C@H](CC(C)C)NC(=O)[C@H](CCCCN)NC(=O)[C@H](C(C)C)NC(=O)[C@@H]2CCCN2C(=O)[C@@H](Cc2ccc(O)cc2)NC1=O (cyclo(KL[dY]PVKL[dY]PV))", "selectivity ratio": 100}

###

selectivity ratio values by entry
- experiment notes: Therapeutic index, ratio of hemolytic activity in human RBC to MIC for Acinetobacter calcoaceticus
- cond: human red blood cells (RBC), read-out: TI
Square brackets hold non-standard residues; d marks the D form. Peptide text beside a SMILES is read from it. Orn = NCCC[C@H](N)C(=O)O

{"molecule": "CC(C)C[C@@H]1NC(=O)[C@H](CCCCN)NC(=O)[C@H](C(C)C)NC(=O)[C@@H]2CCCN2C(=O)[C@@H](Cc2ccc(O)cc2)NC(=O)[C@H](CC(C)C)NC(=O)[C@H](CCCCN)NC(=O)[C@H](C(C)C)NC(=O)[C@@H]2CCCN2C(=O)[C@@H](Cc2ccc(O)cc2)NC(=O)[C@H](CCCCN)NC1=O (cyclo(VKLK[dY]PVKL[dY]P))", "selectivity ratio": 255}
{"molecule": "CC(C)C[C@@H]1NC(=O)[C@H](CCCN)NC(=O)[C@H](C(C)C)NC(=O)[C@@H]2CCCN2C(=O)[C@@H](Cc2ccccc2)NC(=O)[C@H](CC(C)C)NC(=O)[C@H](CCCN)NC(=O)[C@H](C(C)C)NC(=O)[C@@H]2CCCN2C(=O)[C@@H](Cc2ccccc2)NC1=O [GRAMICIDIN S] (cyclo(L[dF]PV[Orn]L[dF]PV[Orn]))", "selectivity ratio": 12}
